Origin of values: the supplement of paper PMC10949913

system: NCI-H295R; assay: AC50 viability; higher = less potent; conditions: 48 h
# true = AC50 viability below 3 µM (exclusive); false = AC50 viability at/above 3 µM

>>> assigned_class("CCC[S+](=O)([O-])c1nc(NC2CC2)cc(-c2ccc3c(ccn3C3CC(C)(C)NC(C)(C)C3)c2)n1")
"false"

Would you kindly look at the next entry?
**Query** Lab log: compare recorded AC50 viability with 3 µM; is it strictly lower for CCCCCCC(C)(C)C1=CC2=C([C@H]3CC(=C/CC3C(C)(C)O2)\CO)C(=C1)O (some centres not stated) ?
**Result** false

----------
test system: CU-ACC2; test: area under concentration-response curve (viability) (AUC (a.u.)); higher = less active; details: 48 h
area under concentration-response curve for assorted compounds
Answer with a bare number; do not write a unit.

>>> assay_value("CCOC(=O)[C@H]1O[C@@H]1C(=O)N[C@@H](CC(C)C)C(=O)NCCC(C)C")
589
>>> assay_value("C\\C1=C\\C(=O)OC2=C1C=CC(=C2)O")
552
>>> assay_value("O=C(c1c(F)ccc(N[S+](=O)([O-])N2CC[C@@H](F)C2)c1F)c1c[nH]c2ncc(-c3cnc(C4CC4)nc3)cc12")
574

**Query** Please list area under concentration-response curve recorded for the compound C\C1=C(\SSC1=S)C2=CN=CC=N2
**Result** 618

**Query** Please list area under concentration-response curve recorded for the compound CCN1/C(=C/C(C)=O)Sc2ccc(OC)cc21
**Result** 569

**Query** Please list area under concentration-response curve recorded for the compound CC(C)NC(=O)COc1cccc(-c2nc(Nc3ccc4[nH]ncc4c3)c3ccccc3n2)c1
**Result** 507

**Query** Please list area under concentration-response curve recorded for the compound CC1COC2=C3N1\C=C(C(O)=O)/C(=O)C3=CC(=C2N4CCN(C)CC4)F (stereo not drawn)
**Result** 537

**Query** Please list area under concentration-response curve recorded for the compound CCOc1ccc(Nc2nc(-c3c(C)nc4ccccn34)cs2)cc1
**Result** 497

**Query** Please list area under concentration-response curve recorded for the compound CC[C@@]1(O)C[C@H](O[C@H]2C[C@H](N(C)C)[C@H](O[C@H]3C[C@H](O)[C@H](O[C@H]4CCC(=O)[C@H](C)O4)[C@H](C)O3)[C@H](C)O2)c2c(cc3c(c2O)C(=O)c2c(O)cccc2C3=O)[C@H]1C(=O)OC
**Result** 533

**Query** Please list area under concentration-response curve recorded for the compound OC1=CC=C(C=C1)\C2=C(O)\C(=O)C3=C(O2)C=C(O)C=C3O
**Result** 451

**Query** Please list area under concentration-response curve recorded for the compound CC(C)n1cnc2c(NCCc3ccc(O)cc3)nc(-c3csc4ccccc34)nc21
**Result** 325

**Query** Please list area under concentration-response curve recorded for the compound C[C@]12CC[C@@H]3c4ccc(O)cc4CC[C@H]3[C@@H]1[C@@H](O)[C@@H](O)[C@@H]2O
**Result** 565

**Query** Please list area under concentration-response curve recorded for the compound Cc1nc(-c2ccc(OCC(C)C)c(C#N)c2)sc1C(=O)O
**Result** 544

**Query** Please list area under concentration-response curve recorded for the compound CN(N=O)C(=O)N[C@@H]1[C@@H](O)[C@H](O)[C@@H](CO)O[C@@H]1O
**Result** 590

**Query** Please list area under concentration-response curve recorded for the compound CC1=CC=C2N=C(NC(=O)CS\C3=N\C4=C(\SCC4)C(=O)N3C5=CC=CC=C5)SC2=C1
**Result** 633

**Query** Please list area under concentration-response curve recorded for the compound O=[N+]([O-])c1cncn1CCN1CCOCC1
**Result** 611

**Query** Please list area under concentration-response curve recorded for the compound CN[C@@H]1C[C@H]2O[C@@](C)([C@@H]1OC)n1c3ccccc3c3c4c(c5c6ccccc6n2c5c31)C(=O)NC4
**Result** 359

**Query** Please list area under concentration-response curve recorded for the compound CN(c1ncccc1CNc1nc(Nc2ccc3c(c2)CC(=O)N3)ncc1C(F)(F)F)[S+](C)(=O)[O-]
**Result** 422

----------
area under concentration-response curve for assorted molecules
test system: CU-ACC2; experiment: area under concentration-response curve (viability) (AUC (a.u.)); higher = less active; conditions: 48 h
Answer with a bare number; do not write a unit.

>>> assay_value("CC(C[N+](C)(C)C)OC(N)=O (stereo not given)")
662
>>> assay_value("N#Cc1c(C2CCNCC2)cc(-c2c(O)cccc2OCC2CC2)nc1N")
269
>>> assay_value("Cc1nnc(C(C)C)n1C1CC2CCC(C1)N2CC[C@H](NC(=O)C1CCC(F)(F)CC1)c1ccccc1 (stereo not given in full)")
533
>>> assay_value("CCc1cccc2c3c([nH]c12)[C@@](CC)(CC(=O)O)OCC3")
605

# next molecule below
**Query** Please list area under concentration-response curve recorded for the molecule C[C@H]1[C@H](OC(=O)CCC(=O)O)O[C@@H]2O[C@@]3(C)CC[C@H]4[C@H](C)CC[C@@H]1[C@@]24OO3
**Result** 585

----------
tested on: CU-ACC1; test: area under concentration-response curve (viability) (AUC (a.u.)); higher = less active; conditions: 48 h
measured-metric: area under concentration-response curve
Answer with a bare number; do not write a unit.

Would you please look over these solved cases?
>>> assay_value("C[C@]12CC[C@@H]3c4ccc(O)cc4C[C@@H](CCCCCCCCC[S+]([O-])CCCC(F)(F)C(F)(F)F)[C@H]3[C@@H]1CC[C@@H]2O (some centres undefined)")
391
>>> assay_value("O=P(O)(O)C(O)(Cn1ccnc1)P(=O)(O)O")
628
>>> assay_value("Cc1nnc(N[S+](=O)([O-])c2ccc(N)cc2)s1")
496

# next molecule below
**Query** Please list area under concentration-response curve recorded for the molecule CCCCCCCCCCCCCCCC(=O)O[C@@H]1[C@@H](O)[C@@H](O)[C@@H]([C@H](NC(=O)[C@@H]2C[C@@H](CCC)CN2C)[C@H](C)Cl)O[C@@H]1SC.Cl
**Result** 489

----------
test system: CU-ACC1; test: area under concentration-response curve (viability) (AUC (a.u.)); higher = less active; conditions: 48 h
area under concentration-response curve for assorted molecules

>>> assay_value("CCC(C)SSc1ncc[nH]1 (stereo not drawn)")
503

**Query** Please list area under concentration-response curve recorded for the molecule Cc1cnc(C(=O)O)c[n+]1[O-]
**Result** 513

**Query** Please list area under concentration-response curve recorded for the molecule COc1cc(OC)cc(N(CCNC(C)C)c2ccc3ncc(-c4cnn(C)c4)nc3c2)c1
**Result** 499

----------
tested on: NCI-H295R; assay: AC50 viability; higher = less potent; conditions: 48 h
# condition met = AC50 viability below 5 µM (exclusive); condition not met = AC50 viability at/above 5 µM

Solved entries (count: 6):
>>> assigned_class("Cc1ccc(C(=O)Nc2ccc(CN3CCN(C)CC3)c(C(F)(F)F)c2)cc1C#Cc1cnc2[nH]ncc2c1")
"condition not met"
>>> assigned_class("COc1ccccc1C(=O)Nc1cc2c(cc1N1CCCCC1)n(C)c(=O)n2C")
"condition not met"
>>> assigned_class("COC(C)(C)CCn1nc(Nc2c(C)cccc2C)c2cnc(Nc3ccc(OCCN4CCCC4)c(F)c3)nc21")
"condition not met"
>>> assigned_class("O=C1Nc2ccc(Cl)cc2[C@@](C#CC2CC2)(C(F)(F)F)O1")
"condition not met"
>>> assigned_class("COc1c(C)c2c(c(O)c1C/C=C(\\C)CCC(=O)OCCN1CCOCC1)C(=O)OC2")
"condition met"
>>> assigned_class("NC(=O)c1cccc2nc(-c3ccc([C@H]4CCCN4)cc3F)[nH]c12")
"condition not met"

**Query** Lab log: compare recorded AC50 viability with 5 µM; is it strictly lower for C=CC(=O)Nc1cc2c(Nc3ccc(F)c(Cl)c3)ncnc2cc1OCCCN1CCOCC1 ?
**Result** condition not met

**Query** Lab log: compare recorded AC50 viability with 5 µM; is it strictly lower for Nc1ncnc2c1ncn2[C@@H]1O[C@H](CO)C[C@H]1O ?
**Result** condition not met

**Query** Lab log: compare recorded AC50 viability with 5 µM; is it strictly lower for C[C@@H]1CN(Cc2ccc(F)cc2)CCN1C(=O)COc1ccc(Cl)cc1NC(N)=O ?
**Result** condition met

**Query** Lab log: compare recorded AC50 viability with 5 µM; is it strictly lower for CNC(=O)c1cc(Oc2ccc(NC(=O)Nc3ccc(Cl)c(C(F)(F)F)c3)c(F)c2)ccn1 ?
**Result** condition not met

**Query** Lab log: compare recorded AC50 viability with 5 µM; is it strictly lower for COc1cccc2c1C(=O)c1c(O)c3c(c(O)c1C2=O)C[C@@](O)(C(=O)CO)C[C@@H]3O[C@H]1C[C@H](N)[C@@H](O)[C@H](C)O1 ?
**Result** condition not met
